test_system: T1, ActRIIA-Fc homodimer (UniProt P27037 20-135)
T1 construct: extracellular domain
T1 sequence (P27037 20-135): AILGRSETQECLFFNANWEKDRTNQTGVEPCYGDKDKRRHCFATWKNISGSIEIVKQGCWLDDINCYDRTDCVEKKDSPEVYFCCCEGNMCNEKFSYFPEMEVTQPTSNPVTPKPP
assay_explanation: Biacore SPR
Property: kon; scope: individual binders
Report field: quantity (unit follows the number).

>  <binder>
GDF11 (ligand, UniProt O95390 299-407, looked up, also called BMP11) NLGLDCDEHSSESRCCRYPLTVDFEAFGWDWIIAPKRYKANYCSGQCEYMFMQKYPHTHLVQQANPRGSAGPCCTPTKMSPINMLYFNDKQQIIYGKIPGMVVDRCGCS

>  <kon>
7.3e+07 M⁻¹ s⁻¹

$$$$
>  <binder>
activin B (ligand, UniProt P09529 293-407, looked up) GLECDGRTNLCCRQQFFIDFRLIGWNDWIIAPTGYYGNYCEGSCPAYLAGVPGSASSFHTAVVNQYRMRGLNPGTVNSCCIPTKLSTMSMLYFDDEYNIVKRDVPNMIVEECGCA

>  <kon>
1.1e+07 M⁻¹ s⁻¹

$$$$
>  <binder>
BMP10 (ligand, UniProt O95393 317-424, looked up) NAKGNYCKRTPLYIDFKEIGWDSWIIAPPGYEAYECRGVCNYPLAEHLTPTKHAIIQALVHLKNSQKASKACCVPTKLEPISILYLDKGVVTYKFKYEGMAVSECGCR

>  <kon>
2.9e+07 M⁻¹ s⁻¹

$$$$

// next entry
Input: Return reported kon; argument: GDF3 (ligand, UniProt Q9NR23 251-364, looked up) AAIPVPKLSCKNLCHRHQLFINFRDLGWHKWIIAPKGFMANYCHGECPFSLTISLNSSNYAFMQALMHAVDPEIPQAVCIPTKLSPISMLYQDNNDNVILRHYEDMVVDECGCG
Output: 1.5e+06 M⁻¹ s⁻¹

Values from patent US20190225669A1
